Origin of the recorded values: paper PMC11446282

System: PP2A-B55α
measurement.protocol: Single alanine mutational scan, YFP-tagged interactors immunoprecipitated from HeLa cells, Western blot
Assay type: binding, human
conditions.used: single alanine mutant of YFP-tagged CDCA4
experimental.endpoint: Experimental % binding (%)

{"molecule": "CDCA4 R58: CDCA4, R58 to alanine (protein, UniProt Q9BXL8 1-241, looked up, variant R58A) Cell division …: MFARGLKRKCVGHEEDVEGALAGLKTVSSYSLQRQSLLDMSLVKLQLCHMLVEPNLCASVLIANTVRQIQEEMTQDGTWRTVAPQAAERAPLDRLVSTEILCRAAWGQEGAHPAPGLGDGHTQGPVSDLCPVTSAQAPRHLQSSAWEMDGPRENRGSFHKSLDQIFETLETKNPSCMEELFSDVDSPYYDLDTVLTGMMGGARPGPCEGLEGLAPATPGPSSSCKSDLGELDHVVEILVET", "experimental.endpoint": "Experimental % binding", "unit.descriptor": "%", "assay.value": 37}
{"molecule": "CDCA4 C57: CDCA4, C57 to alanine (protein, UniProt Q9BXL8 1-241, looked up, variant C57A) Cell division …: MFARGLKRKCVGHEEDVEGALAGLKTVSSYSLQRQSLLDMSLVKLQLCHMLVEPNLARSVLIANTVRQIQEEMTQDGTWRTVAPQAAERAPLDRLVSTEILCRAAWGQEGAHPAPGLGDGHTQGPVSDLCPVTSAQAPRHLQSSAWEMDGPRENRGSFHKSLDQIFETLETKNPSCMEELFSDVDSPYYDLDTVLTGMMGGARPGPCEGLEGLAPATPGPSSSCKSDLGELDHVVEILVET", "experimental.endpoint": "Experimental % binding", "unit.descriptor": "%", "assay.value": 91}
{"molecule": "CDCA4 V52: CDCA4, V52 to alanine (protein, UniProt Q9BXL8 1-241, looked up, variant V52A) Cell division …: MFARGLKRKCVGHEEDVEGALAGLKTVSSYSLQRQSLLDMSLVKLQLCHMLAEPNLCRSVLIANTVRQIQEEMTQDGTWRTVAPQAAERAPLDRLVSTEILCRAAWGQEGAHPAPGLGDGHTQGPVSDLCPVTSAQAPRHLQSSAWEMDGPRENRGSFHKSLDQIFETLETKNPSCMEELFSDVDSPYYDLDTVLTGMMGGARPGPCEGLEGLAPATPGPSSSCKSDLGELDHVVEILVET", "experimental.endpoint": "Experimental % binding", "unit.descriptor": "%", "assay.value": 82}
{"molecule": "CDCA4 Q46: CDCA4, Q46 to alanine (protein, UniProt Q9BXL8 1-241, looked up, variant Q46A) Cell division …: MFARGLKRKCVGHEEDVEGALAGLKTVSSYSLQRQSLLDMSLVKLALCHMLVEPNLCRSVLIANTVRQIQEEMTQDGTWRTVAPQAAERAPLDRLVSTEILCRAAWGQEGAHPAPGLGDGHTQGPVSDLCPVTSAQAPRHLQSSAWEMDGPRENRGSFHKSLDQIFETLETKNPSCMEELFSDVDSPYYDLDTVLTGMMGGARPGPCEGLEGLAPATPGPSSSCKSDLGELDHVVEILVET", "experimental.endpoint": "Experimental % binding", "unit.descriptor": "%", "assay.value": 61}
{"molecule": "CDCA4 K44: CDCA4, K44 to alanine (protein, UniProt Q9BXL8 1-241, looked up, variant K44A) Cell division …: MFARGLKRKCVGHEEDVEGALAGLKTVSSYSLQRQSLLDMSLVALQLCHMLVEPNLCRSVLIANTVRQIQEEMTQDGTWRTVAPQAAERAPLDRLVSTEILCRAAWGQEGAHPAPGLGDGHTQGPVSDLCPVTSAQAPRHLQSSAWEMDGPRENRGSFHKSLDQIFETLETKNPSCMEELFSDVDSPYYDLDTVLTGMMGGARPGPCEGLEGLAPATPGPSSSCKSDLGELDHVVEILVET", "experimental.endpoint": "Experimental % binding", "unit.descriptor": "%", "assay.value": 22}
